# Tested on: C. parvum Iowa isolate
# ASSAY NAME: Immunofluorescence assay for C. parvum growth inhibition in HCT-8 cells
# Format: cell-based, Cryptosporidium parvum
# DETAILS: Cryptosporidium parvum, HCT-8, read-out: C. parvum EC50 (95% CI)
pEC50: −log10 of the molar value.
REPORTED PROPERTY: pEC50

Measured pEC50, c1cc2nncn2nc1N1CCNCC1 [Compound D-53, N1CCN(CC1)c1ccc2n(n1)cnn2] : < 4.60

====

# Test system: C. hominis TU502
# ASSAY NAME: Cryptosporidium hominis growth inhibition assay (1,536-well)
# Assay type: cell-based
# DETAILS: HCT-8 cells, read-out: EC50 against C. hominis (isolate TU502)
REPORTED PROPERTY: pEC50
Reminder that pEC50 means the negative base-10 logarithm of the concentration expressed in mol/L.

Reported pEC50 for O=C(Nc1ccc(Cl)cc1)N1CCN(c2ccc3nncn3n2)CC1 [MMV665917] was 5.39

====

# Tested on: C. parvum Iowa isolate
# ASSAY NAME: NOD SCID gamma (NSG) mouse model of chronic cryptosporidiosis, fecal qPCR
# Type: in vivo, NOD SCID gamma mice
# DETAILS: dose 50 mg/kg, interval 12 h, duration 4 days
REPORTED PROPERTY: NSG efficacy

Some molecules with recorded NSG efficacy:
MOLECULE	VAL
c1ccc(CNc2nc(NC3CCCC3)nc3ccccc23)cc1	No
c1ccc(CNc2nc(Nc3ccccc3)nc3ccccc23)cc1	No
O=C(Nc1nc(-c2ccccn2)cs1)c1ccccc1Br	No
COc1cccc(C(=O)NC(c2ccc(C)cc2)c2cc(Cl)c3cccnc3c2O)c1 (centres unmarked)	No
CN(C)c1ccc(C(O)(c2ccc(N(C)C)cc2)c2ccc(N(C)C)cc2)cc1	No

Please fill in: NSG efficacy reported for Oc1c(C(Nc2ccccn2)c2cccc(Oc3ccccc3)c2)ccc2cccnc12 (centres unmarked) = No

Just so you know, measured NSG efficacy for CSc1ccccc1C(=O)Nc1nc(-c2ccccn2)cs1 came out at No

Just so you know, measured NSG efficacy for COc1ccc(Nc2nc(NCc3ccccc3Cl)c3ccccc3n2)cc1Cl came out at No

Data origin, for the record: paper PMC5913971
